Reported GI50 values are given for each entry in this list.
Test system: Hs-578T
Experiment: NCI tumour cell line growth inhibition, 48 h
Activity calls are given as the source filed them. Cut-off read from the data, not from the text of the source: active = GI50 up to about 1.1 µM and inactive = higher.

COMPOUND	GI50
COC(=O)c1ccc(Nc2nc3[nH]cnc3c(=O)[nH]2)cc1	> 100 µM (inactive)

In the following, a different compound is considered.
Incoming: Returns the measured GI50 for the input compound. Input: "COc1ccc(/C=C2\CCc3cc(OC)c(OC)cc3C2=O)cc1"
Outgoing: > 10 µM (inactive)

---

System: HL-60
Assay: NCI tumour cell line growth inhibition, 48 h
Calls of active or inactive are those of the source. Rule as the data show it: active = GI50 up to about 1.1 µM and inactive = higher.
Would you mind answering with one of these outcomes? y for active, n for inactive

COMPOUND	QUALITATIVE_LABEL
COc1ccc(C2CC(=O)Oc3ccccc3O2)cc1 (centres undefined)	n
CC(=O)O[C@H]1C(=O)[C@@]2(C)[C@H]([C@H](OC(=O)c3ccc(F)cc3)[C@]3(O)C[C@H](OC(=O)[C@H](O)[C@@H](NC(=O)c4ccccc4)c4ccccc4)C(C)=C1C3(C)C)[C@]1(OC(C)=O)CO[C@@H]1C[C@@H]2O	y
O=C(N1CCN(c2ccccc2)CC1)N(C(=O)C1(c2ccc(Cl)cc2)CCCC1)S(=O)(=O)c1ccccc1	n
O=C(c1ccccc1)c1c(-c2ccccc2)sc2nc3ccccc3nc12	n
O=C1c2ccccc2-c2cccc3ccc(Cc4ccccc4)c1c23	n
COc1ccc([N+](=O)[O-])c2c(NCCCN(C)C)ccnc12	n
COC(=O)[C@H](CNC(=O)/C=C/c1ccc(OC(C)=O)c(OC(C)=O)c1)NC(=O)/C=C/c1ccc(OC(C)=O)c(OC(C)=O)c1	n
CC1(C)OC[C@H](COCOP2(=O)Oc3ccc4ccccc4c3-c3c(ccc4ccccc34)O2)O1	n
NC1=C(c2nc(-c3ccccc3)cs2)C(c2ccco2)c2c(c3ccccc3oc2=O)O1 (centres undefined)	n
C=CC1ON(Cc2ccccc2)CCc2cc(OC)c(OC)cc21 (centres undefined)	n

Incoming: Please indicate how the test categorized "CSc1ncnc2c1ncn2CCC(=O)OC(C)(C)C" .
Outgoing: n

Incoming: Please indicate how the test categorized CCCCCCCCCCCCCC(=O)OC1C(CO)OC(=O)C1O (centres undefined) .
Outgoing: n

Incoming: Please indicate how the test categorized "Cn1ccnc1Cn1cc(-c2cccc(-c3cn[nH]c3)c2)cn1" .
Outgoing: n

Incoming: Please indicate how the test categorized "COc1ccc(-c2cc(-c3cc(F)c(Cl)cc3Cl)[nH]n2)cc1OC" .
Outgoing: n

---

Tested on: SNB-19
Assay: NCI tumour cell line growth inhibition, 48 h
Active and inactive are the calls of the source. No stated cut-off is given here; in the data, active = GI50 up to about 1.1 µM and inactive = higher.
MEASURED_ENDPOINT: GI50

Answered cases to consult:
MOLECULE	MEASURED_ENDPOINT	VALUE_REPORTED
COC(=O)[C@H]1[C@H]2C[C@@H]3c4[nH]c5cc(OC)ccc5c4CCN3C[C@H]2C[C@@H](OC(=O)c2cc(OC)c(OC)c(OC)c2)[C@@H]1OC [RESERPINE]	GI50	16.2 µM (inactive)
C1CSCCSCSCCS1	GI50	> 100 µM (inactive)
CCOC(=O)c1ccc(-c2onc(C)c2Br)[nH]1	GI50	66.1 µM (inactive)

Incoming: # returns recorded GI50 (system: SNB-19) for "COc1c(C)c(C/C=C(\C)CC/C=C(\C)CCC=C(C)C)c(OC)c(OC)c1OC"
Outgoing: > 100 µM (inactive)

Incoming: # returns recorded GI50 (system: SNB-19) for NCCOCC(N)C(=O)O (centres undefined)
Outgoing: > 100 µM (inactive)

Incoming: # returns recorded GI50 (system: SNB-19) for CC(C)=CC(=O)N(C)C1C2CN3CCC(O2)C13 (centres undefined)
Outgoing: > 100 µM (inactive)

Incoming: # returns recorded GI50 (system: SNB-19) for N#CCN1c2ccccc2CCC1Cl (centres undefined)
Outgoing: > 10 µM (inactive)

Incoming: # returns recorded GI50 (system: SNB-19) for "C/C=C(\CCOS(=O)(=O)c1ccc(C)cc1)[Si](C)(C)C"
Outgoing: > 100 µM (inactive)

Incoming: # returns recorded GI50 (system: SNB-19) for "COc1cc(Nc2nc3ccccc3nc2C(C)C)cc(OC)c1OC"
Outgoing: > 100 µM (inactive)
